Emax overview
# Target Entity: human FGFR1c + KLB receptor complex on HEK293 iLite FGF21 reporter cells (human, UniProt P11362 22-822; Q86Z14 1-1044)
# Sequence (P11362 22-822, chain 1 of 2): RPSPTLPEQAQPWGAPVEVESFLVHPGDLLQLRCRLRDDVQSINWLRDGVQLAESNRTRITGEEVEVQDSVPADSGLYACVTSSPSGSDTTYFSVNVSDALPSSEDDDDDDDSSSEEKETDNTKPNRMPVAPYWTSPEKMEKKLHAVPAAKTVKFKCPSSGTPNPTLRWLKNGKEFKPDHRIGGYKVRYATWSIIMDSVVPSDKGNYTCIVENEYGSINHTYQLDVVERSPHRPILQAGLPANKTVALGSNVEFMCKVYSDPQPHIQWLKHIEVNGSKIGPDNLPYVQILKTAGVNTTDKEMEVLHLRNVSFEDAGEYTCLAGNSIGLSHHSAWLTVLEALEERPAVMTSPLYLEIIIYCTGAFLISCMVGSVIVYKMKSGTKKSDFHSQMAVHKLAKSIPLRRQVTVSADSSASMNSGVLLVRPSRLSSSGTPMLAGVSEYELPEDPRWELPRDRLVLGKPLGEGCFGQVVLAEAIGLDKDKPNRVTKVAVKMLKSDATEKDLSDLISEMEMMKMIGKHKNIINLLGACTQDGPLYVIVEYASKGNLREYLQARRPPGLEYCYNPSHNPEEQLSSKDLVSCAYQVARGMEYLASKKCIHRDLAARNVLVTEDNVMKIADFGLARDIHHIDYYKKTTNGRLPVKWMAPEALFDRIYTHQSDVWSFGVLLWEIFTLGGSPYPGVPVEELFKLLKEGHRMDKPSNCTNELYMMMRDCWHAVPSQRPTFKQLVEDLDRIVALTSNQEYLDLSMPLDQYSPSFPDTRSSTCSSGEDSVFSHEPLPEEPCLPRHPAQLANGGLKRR
# Sequence (Q86Z14 whole entry, chain 2 of 2): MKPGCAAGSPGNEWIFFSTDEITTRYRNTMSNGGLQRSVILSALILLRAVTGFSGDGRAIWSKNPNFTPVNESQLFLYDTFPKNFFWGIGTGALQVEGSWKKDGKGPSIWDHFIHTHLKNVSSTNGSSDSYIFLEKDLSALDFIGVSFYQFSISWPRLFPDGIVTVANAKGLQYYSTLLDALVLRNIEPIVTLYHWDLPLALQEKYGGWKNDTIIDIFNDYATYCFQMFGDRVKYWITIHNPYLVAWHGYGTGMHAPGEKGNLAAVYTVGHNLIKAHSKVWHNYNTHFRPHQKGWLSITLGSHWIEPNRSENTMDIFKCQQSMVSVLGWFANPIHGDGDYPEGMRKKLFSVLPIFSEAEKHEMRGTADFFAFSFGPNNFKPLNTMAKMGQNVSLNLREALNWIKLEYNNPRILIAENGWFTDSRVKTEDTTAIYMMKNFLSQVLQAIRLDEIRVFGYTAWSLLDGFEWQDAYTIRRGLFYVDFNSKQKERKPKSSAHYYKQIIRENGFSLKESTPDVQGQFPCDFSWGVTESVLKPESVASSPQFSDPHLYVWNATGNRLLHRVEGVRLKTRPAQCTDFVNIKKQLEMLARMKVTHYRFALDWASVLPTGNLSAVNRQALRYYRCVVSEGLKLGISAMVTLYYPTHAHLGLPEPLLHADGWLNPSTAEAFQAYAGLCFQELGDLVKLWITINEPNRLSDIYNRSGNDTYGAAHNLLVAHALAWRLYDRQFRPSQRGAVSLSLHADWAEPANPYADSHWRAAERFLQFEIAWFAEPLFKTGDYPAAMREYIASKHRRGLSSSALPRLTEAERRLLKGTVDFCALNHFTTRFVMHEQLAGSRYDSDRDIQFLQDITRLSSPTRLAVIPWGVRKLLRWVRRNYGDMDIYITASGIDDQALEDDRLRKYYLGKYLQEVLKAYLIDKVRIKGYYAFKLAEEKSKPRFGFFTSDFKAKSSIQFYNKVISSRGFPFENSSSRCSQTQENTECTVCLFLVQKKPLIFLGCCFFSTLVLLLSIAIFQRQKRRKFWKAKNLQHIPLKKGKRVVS
# Method Description: cell-based or functional assay
Lab book: enter the figure in %, no units written.

Retrieve Emax measured for Ab0360 (antibody, IgG4, V domains shown, IgG4 PE) VH: QVTLKESGPVLVKPTETLTLTCTVSGFSLNNARVGVSWIRQPPGKALEWLAHIFSNDEKSYSTSLKSRLTISKDTSKSQVVLTMTNMDPVDTATYYCARSVVTGGYYYEGMDVWGQGTTVTVSS VL: SYVLTQPPSVSVAPGQTARITCGGSNIGSESVHWYQQKPGQAPVLVVYEHSDRPSGIPERFSGSNSGNTATLTISRVEAGDEADYYCQVWEGSSDHVVFGGGTKLTVLG and print it. 845

Retrieve Emax measured for Ab0363 (antibody, IgG4, V domains shown) VH: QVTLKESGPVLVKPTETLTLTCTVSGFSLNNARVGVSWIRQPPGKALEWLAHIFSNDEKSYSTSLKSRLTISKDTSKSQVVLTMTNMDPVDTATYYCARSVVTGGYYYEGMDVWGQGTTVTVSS VL: SYVLTQPPSVSVAPGQTARITCGGANIGSESVHWYQQKPGQAPVLVVYSASDRPSGIPERFSGSNSGNTATLTISRVEAGDEADYYCQVWAGASDHVVFGGGTKLTVLG and print it. 736
